Kindly supply the reported CC50 values for the records listed here.
# assay.text: in vitro
# experimental.setup: African green monkey, CC50

Kindly note the recorded CC50 for CC1CCCC(C)N1CC(O)COCCC12CC3CC(CC(C3)C1)C2 (centres unmarked) , which is 3.8 µM

Kindly note the recorded CC50 for CC(NC(=O)NCC(C)(C)N1CCOCC1)C12CC3CC(CC(C3)C1)C2 (centres unmarked) , which is > 10 µM

Kindly note the recorded CC50 for `O=C(CC12CC3CC(CC(C3)C1)C2)N[C@@H]1CCN(Cc2ccccc2)C1` , which is > 10 µM

Kindly note the recorded CC50 for `COC(=O)c1ccc(COc2ccccc2CN2CCN(C(=O)CNC(=O)C34CC5CC(C3)CC(c3ccccc3)(C5)C4)CC2)cc1` , which is > 3 µM

Kindly note the recorded CC50 for `O=C(NC1CCNCC1)C12CC3CC(C1)CC(c1ccccc1)(C3)C2` , which is > 10 µM

Kindly note the recorded CC50 for `CN1CCN(C(=O)C23CC4CC(C2)CC(c2ccccc2)(C4)C3)CC1` , which is > 10 µM

Kindly note the recorded CC50 for CC12CC3CC(C(=O)Nc4ccc(CN)cc4)(C1)CC(c1ccccc1)(C3)C2 (centres unmarked) , which is 7.9 µM

Kindly note the recorded CC50 for O=C(NC1CCNCC1)C12CC3CC1CC(c1ccccc1)(C3)C2 (centres unmarked) , which is 12.5 µM

###

# assay.text: physchem
# experimental.setup: pH 7, aqueous buffer, kinetic from dmso stock
endpoint.label: solubility

Kindly note the recorded solubility for CC12CC3CC(C(=O)N[C@H]4CC[C@H](N)CC4)(C1)CC(c1ccccc1)(C3)C2.Cl (stereo partly shown) [Example A78] , which is > 500 µM

###

Kindly supply the reported pEC50 values for the records listed here.
# Tested on: EBOV mucin-domain-deleted glycoprotein pseudotyped VSV
# assay.text: microbe, parasite or virus in culture
# Assay type: cell-based, Zaire ebolavirus
# experimental.setup: Zaire ebolavirus, Vero, 24 h, read-out: EC50 EBOV
pEC50 field: float, defined as -log10 of concentration (mol/L).

Kindly note the recorded pEC50 for `COc1ccc(N2CCN(CCCNC(=O)C34CC5CC(C3)CC(c3ccccc3)(C5)C4)CC2)cc1` , which is 6.04

Kindly note the recorded pEC50 for CN(C)C1CCCN(C(=O)NCC23CC4CC(CC(C4)C2)C3)C1 (stereo not drawn) , which is 5.17

Kindly note the recorded pEC50 for CC(C)(C)NCC(O)COCCC12CC3CC(CC(C3)C1)C2 (stereo not drawn) , which is 6.20

Kindly note the recorded pEC50 for `CCOCCN1CCN(CC23CC4CC(CC(C4)C2)C3)CC1` , which is 5.34

Kindly note the recorded pEC50 for CC(NC(=O)Cn1ccc(C(F)(F)F)n1)C12CC3CC(CC(C3)C1)C2 (stereo not drawn) , which is 5.24

Kindly note the recorded pEC50 for CCC(NCC(O)COc1ccccc1C(C)C)C12CC3CC(CC(C3)C1)C2 (stereo not drawn) , which is 5.89

Kindly note the recorded pEC50 for CC1CCCC(C)N1CC(O)COCCC12CC3CC(CC(C3)C1)C2 (stereo not drawn) , which is 6.68

###

# Tested on: EBOV mucin-domain-deleted glycoprotein pseudotyped VSV
# assay.text: microbe, parasite or virus in culture
# Type: cell-based, Zaire ebolavirus
# experimental.setup: Zaire ebolavirus, Vero, 24 h, read-out: EC50 EBOV
// assign MET if EC50 falls strictly below 0.8 µM, else NOT MET (ties count as NOT MET)

Enquiry: I'd appreciate it if you could check whether OC(COCCC12CC3CC(CC(C3)C1)C2)CN1CCN(c2ccccn2)CC1 (stereo not drawn) has EC50 smaller than 0.8 µM.
Return: NOT MET

Enquiry: I'd appreciate it if you could check whether O=C(NCC(c1cccs1)N1CCOCC1)C12CC3CC(C1)CC(c1ccccc1)(C3)C2 (stereo not drawn) has EC50 smaller than 0.8 µM.
Return: NOT MET

Enquiry: I'd appreciate it if you could check whether CN1CCCN(CC(O)COc2ccc(C34CC5CC(CC(C5)C3)C4)cc2)CC1 (stereo not drawn) has EC50 smaller than 0.8 µM.
Return: MET

Enquiry: I'd appreciate it if you could check whether CC(C)CN1CCOC(CNC(=O)C23CC4CC(C2)CC(c2ccccc2)(C4)C3)C1 (stereo not drawn) has EC50 smaller than 0.8 µM.
Return: MET

Enquiry: I'd appreciate it if you could check whether CC(NC(=O)NCC(C)(C)N1CCOCC1)C12CC3CC(CC(C3)C1)C2 (stereo not drawn) has EC50 smaller than 0.8 µM.
Return: NOT MET

Enquiry: I'd appreciate it if you could check whether CC1CCN(CC(O)COc2ccc(C34CC5CC(CC(C5)C3)C4)cc2)CC1 (stereo not drawn) has EC50 smaller than 0.8 µM.
Return: MET

Enquiry: I'd appreciate it if you could check whether `Cc1ccc(C23CC4CC(CC(C(=O)N5CCN(C)CC5)(C4)C2)C3)cc1` has EC50 smaller than 0.8 µM.
Return: NOT MET

Enquiry: I'd appreciate it if you could check whether `Cc1ccc(C23CC4CC(CC(C(=O)N5CCN(CCO)CC5)(C4)C2)C3)cc1` has EC50 smaller than 0.8 µM.
Return: NOT MET

Enquiry: I'd appreciate it if you could check whether COc1cccc(COCC(O)CNCC23CC4CC(CC(C4)C2)C3)c1 (stereo not drawn) has EC50 smaller than 0.8 µM.
Return: NOT MET

Enquiry: I'd appreciate it if you could check whether CC1CCCCN1CC(O)COCCC12CC3CC(CC(C3)C1)C2 (stereo not drawn) has EC50 smaller than 0.8 µM.
Return: MET

Enquiry: I'd appreciate it if you could check whether `C#CCN1CCC(C(=O)Nc2cc(C34CC5CC(CC(C5)C3)C4)n[nH]2)CC1` has EC50 smaller than 0.8 µM.
Return: NOT MET

Enquiry: I'd appreciate it if you could check whether CCN(CC(O)COCCC12CC3CC(CC(C3)C1)C2)C1CCCCC1 (stereo not drawn) has EC50 smaller than 0.8 µM.
Return: MET

Enquiry: I'd appreciate it if you could check whether `CC1CCN(C[C@H](O)COc2ccc(C34CC5CC(CC(C5)C3)C4)cc2)CC1` has EC50 smaller than 0.8 µM.
Return: MET

Enquiry: I'd appreciate it if you could check whether `O=C(N1CCN(c2ccccc2)CC1)C12CC3CC(C1)CC(c1ccccc1)(C3)C2` has EC50 smaller than 0.8 µM.
Return: MET

Enquiry: I'd appreciate it if you could check whether COc1ccc(C(CNC(=O)C23CC4CC(C2)CC(c2ccccc2)(C4)C3)N2CCOCC2)cc1 (stereo not drawn) has EC50 smaller than 0.8 µM.
Return: NOT MET

Enquiry: I'd appreciate it if you could check whether `CCN(CC)CCNc1nc(C23CC4CC(CC(C4)C2)C3)cs1` has EC50 smaller than 0.8 µM.
Return: MET

Enquiry: I'd appreciate it if you could check whether `CN(C)CCNS(=O)(=O)c1ccc(C23CC4CC(CC(C4)C2)C3)cc1` has EC50 smaller than 0.8 µM.
Return: MET

###

# assay.text: in vitro
# experimental.setup: African green monkey, CC50
// assign y if CC50 falls strictly below 4 µM, else n (ties count as n)

Enquiry: I'd appreciate it if you could check whether `O=C(N[C@@H]1CCCN(Cc2ccccc2)C1)C12CC3CC(C1)CC(c1ccccc1)(C3)C2` has CC50 smaller than 4 µM.
Return: y

Enquiry: I'd appreciate it if you could check whether `NCc1ccc(NCC23CC4CC(C2)CC(c2ccccc2)(C4)C3)nc1` has CC50 smaller than 4 µM.
Return: n

Enquiry: I'd appreciate it if you could check whether `CC1CCN(C[C@@H](O)COCC23CC4CC(C2)CC(c2ccccc2)(C4)C3)CC1` has CC50 smaller than 4 µM.
Return: y

Enquiry: I'd appreciate it if you could check whether `CN(C)CCCNc1nc(C23CC4CC(CC(C4)C2)C3)cs1` has CC50 smaller than 4 µM.
Return: n

Enquiry: I'd appreciate it if you could check whether `O=C(N1CCCNCC1)C12CC3CC(C1)CC(c1ccccc1)(C3)C2` has CC50 smaller than 4 µM.
Return: n

###

# assay.text: in vitro
# experimental.setup: African green monkey, CC50
endpoint.label: CC50 (µM)
Supply the numeric figure in µM, leaving out any unit text.

Kindly note the recorded CC50 for O=C(CNC(=O)C12CC3CC(C1)CC(c1ccccc1)(C3)C2)N1CCN(Cc2ccccc2)CC1 [Example A16] , which is 12.9

Kindly note the recorded CC50 for CC1CCN(C[C@H](O)COc2ccc(C34CC5CC(C)(CC(C)(C5)C3)C4)cc2)CC1 [Example D40] , which is 2.5

Kindly note the recorded CC50 for CN1CC(NC(=O)CC23CC4CC(C2)CC(c2ccccc2)(C4)C3)C1 [Example A39] , which is 19.1

###

# assay.text: in vivo
# experimental.setup: male, CD-1, mouse, iv, 1 mg/kg
endpoint.label: Cmax (ng/mL)
Supply the numeric figure in ng/mL, leaving out any unit text.

Kindly note the recorded Cmax for CC12CC3CC(C(=O)N[C@H]4CC[C@H](N)CC4)(C1)CC(c1ccccc1)(C3)C2.Cl (stereo partly shown) , which is 129
